System: NCI-H295R
assay.name: AC50 viability; higher = less potent
measurement.conditions: 48 h
observable: AC50 viability (µM)
Answers are plain numbers, in µM.

Recorded results for 3 molecules are shown here.
> print(dat)
                                   molecule  value.observed
1  Cc1cnc(Nc2ccc(CN3CCOCC3)cc2)nc1Nc1cccc([S+](=O)([O-])NC(C)(C)C)c1            9.34
2  CCN(CC)CCOC1=CC=C(NC2=NC=C3\C=C(/C(=O)N(C)C3=N2)C4=C(Cl)C=CC=C4Cl)C=C1            4.17
3  COc1cccc2c1C(=O)c1c(O)c3c(c(O)c1C2=O)C[C@@](O)(C(=O)CO)C[C@@H]3O[C@H]1C[C@H](N)[C@H](O)[C@H](C)O1            16.6

Now let's try a different one.
Readout AC50 viability for COc1cc(C)c(Sc2cnc(NC(=O)c3ccc(CNC(C)C(C)C)cc3)s2)cc1C(=O)N1CCN(C(C)=O)CC1 (centres undefined) , test system NCI-H295R, was 14.8

* * *

For each of the molecules below, state its log10 of AC50 viability.
Tested on: CU-ACC1
assay.name: AC50 viability; higher = less potent
measurement.conditions: 48 h
Log scale reminder: AC50 viability in µM, then log10 taken.

> print(dat)
                                   compound               observable  value.observed
1  C[S+](=O)([O-])CCNCc1ccc(-c2ccc3ncnc(Nc4ccc(OCc5cccc(F)c5)c(Cl)c4)c3c2)o1  log10 of AC50 viability            1.37
2  C=CC(=O)Nc1cccc(Nc2nc(Nc3ccc(N4CCN(C(C)=O)CC4)cc3OC)ncc2C(F)(F)F)c1  log10 of AC50 viability            0.67
3  CN(C)CCOc1ccc(-c2nc(-c3ccncc3)c(-c3ccc4c(c3)CC/C4=N\O)[nH]2)cc1  log10 of AC50 viability            1.22

For every item below, please supply its log10 of AC50 viability.
1. FC1=C(C=C(C/C2=N/NC(=O)C3=C2C=CC=C3)C=C1)C(=O)N4CCN(CC4)C(=O)C5CC5
2. Cn1cc(CNCC2CCN(c3ncc(C(=O)NO)cn3)CC2)c2ccccc21
3. O=C(c1ccc(F)c(F)c1Nc1ccc(I)cc1F)N1CC(O)([C@@H]2CCCCN2)C1
4. Cc1cccc(CC(=O)N2CCc3c2ccc(-c2cn(C)c4ncnc(N)c24)c3F)n1
5. CN[S+](=O)([O-])c1ccc2c(c1)/C(=C/c1[nH]c3c(c1CCCN1CCN(C)CC1)CCCC3)C(=O)N2

Found:
[1.02, -0.18, 0.82, 0.67, 1.37]

* * *

Tested on: NCI-H295R
assay.name: area under concentration-response curve (viability) (AUC (a.u.)); higher = less active
measurement.conditions: 48 h
observable: area under concentration-response curve
Give bare numbers.

Recorded results for 2 molecules are shown here.
> print(dat)
                                   molecule        tgt  value.observed
1   COc1ccc(CCC(=O)Nc2nc3ccc(Cl)cc3s2)cc1OC  NCI-H295R             563
2  Cc1n[nH]c2ccc(-c3cncc(OC[C@@H](N)Cc4ccccc4)c3)cc12  NCI-H295R             294

For every item below, please supply its area under concentration-response curve.
1. CC(C)[C@H]1C(=O)N[C@H](CO)Cc2c[nH]c3cccc(c23)N1C
2. C[C@@H](c1ncncc1F)[C@](O)(Cn1cncn1)c1ccc(F)cc1F
3. C=C1C(=O)[C@@]23C(CC[C@@H]1[C@H]2O)[C@@]12CO[C@]3(O)[C@@H](O)[C@@H]1C(C)(C)CC[C@@H]2O (some centres undefined)
4. CC[C@@]1(O)C(=O)OCC/2=C1/C=C3\N(CC4=CC5=CC(=CC=C5N=C34)O)C2=O
5. CN1CCC(C1CO)C2=C(O)C=C(O)C3=C2O\C(=C/C3=O)C4=CC=CC=C4Cl (centres undefined)
6. Nc1nc(F)nc2c1ncn2[C@@H]1O[C@H](CO)[C@@H](O)[C@@H]1O
7. Cc1ncc(-c2ccnc(Nc3ccc([S+](C)(=O)[O-])cc3)n2)n1C(C)C

Found:
1: 575; 2: 475; 3: 529; 4: 518; 5: 422; 6: 510; 7: 307
